Please go through the items and note down their MIC.
Test system: H. pylori ofloxacin- and roxithromycin-resistant clinical isolate TY5
Assay: In vitro MIC test in Columbia agar, resistant clinical isolate
Type: cell-based
Conditions: Helicobacter pylori, 72 h; resistant strain TY5; 37° C., pH 7.0, 3 days
Method: An in vitro test was performed in a Columbia agar medium using standard strains of H. pylori, NCTC 11637 and 11916, clinical isolates PT#1045482, PT#1045483 and PT#1045484, and ofloxacin- and roxithromycin-resistant, clinical isolates TY2, 4 and 5. Each of the test objects was dissolved in a 1% DMSO solution. […] The strains were cultured at 37° C. and pH 7.0 for 3 days, and on the 4th day, the minimum inhibitory concentrations (MIC, μg/ml) were determined.
Answers are plain numbers, in µg/mL.

Reference set, count: 7
{"molecule": "Cc1c(OCCCCCCCCO)ccnc1CSc1nc2ccccc2[nH]1", "assay-metric": "MIC", "assay-value": 0.03}
{"molecule": "CC[C@H]1OC(=O)[C@H](C)[C@@H](O[C@H]2C[C@@](C)(OC)[C@@H](O)[C@H](C)O2)[C@H](C)[C@@H](O[C@@H]2O[C@H](C)C[C@H](N(C)C)[C@H]2O)[C@](C)(O)C[C@@H](C)/C(=N\\OCOCCOC)[C@H](C)[C@@H](O)[C@]1(C)O [RXM, roxithromycin, reference compound]", "assay-metric": "MIC", "assay-value": 3.5}
{"molecule": "Cc1c(OCCCCCCCCCO)ccnc1CSc1nc2ccccc2[nH]1", "assay-metric": "MIC", "assay-value": 0.2}
{"molecule": "Cc1c(OCCCCCO)ccnc1CSc1nc2ccccc2[nH]1", "assay-metric": "MIC", "assay-value": 0.3}
{"molecule": "Cc1c(OCCCCCCCO)ccnc1CSc1nc2ccccc2[nH]1", "assay-metric": "MIC", "assay-value": 0.1}
{"molecule": "Cc1c(OCCCCCCO)ccnc1CSc1nc2ccccc2[nH]1", "assay-metric": "MIC", "assay-value": 0.1}
{"molecule": "CC1COc2c(N3CCN(C)CC3)c(F)cc3c(=O)c(C(=O)O)cn1c23 (centres unmarked) [Control Drug 4 (Ofloxacin), ofloxacin, reference compound]", "assay-metric": "MIC", "assay-value": 2.5}

Pending molecule:
Entry `Cc1c(OCCCCCCCCCCO)ccnc1CSc1nc2ccccc2[nH]1` needs its MIC filled in; supply it.
0.3

###

Can you tell me log10 MIC for the items I'm about to list?
Tested on: H. pylori NCTC 11637
Experiment: In vitro MIC test in Columbia agar, standard strain
Assay type: cell-based, Helicobacter pylori
Conditions: Helicobacter pylori, NCTC11637, 72 h; standard strain NCTC 11637; 37° C., pH 7.0, 3 days
Note the log scale: values are log10 of MIC expressed in µg/mL.

Some solved cases for reference:
{"compound": "Cc1c(OCCCCCCCCCCO)ccnc1CSc1nc2ccccc2[nH]1 [Example 6]", "log10 MIC": -0.52}
{"compound": "CC1COc2c(N3CCN(C)CC3)c(F)cc3c(=O)c(C(=O)O)cn1c23 (centres unmarked) [Control Drug 4 (Ofloxacin), ofloxacin, reference compound]", "log10 MIC": -0.10}
{"compound": "Cc1c(OCCCCCCCCCO)ccnc1CSc1nc2ccccc2[nH]1 [Example 5]", "log10 MIC": -1.00}
{"compound": "Cc1c(OCCCCCCCO)ccnc1CSc1nc2ccccc2[nH]1 [Example 3]", "log10 MIC": -1.00}
{"compound": "Cc1c(OCCCCCCCCO)ccnc1CSc1nc2ccccc2[nH]1 [Example 4]", "log10 MIC": -1.52}

Lab note: each compound below needs its log10 MIC filled in.
1. Cc1c(OCCCCCO)ccnc1CSc1nc2ccccc2[nH]1 [Example 1]
2. CC[C@H]1OC(=O)[C@H](C)[C@@H](O[C@H]2C[C@@](C)(OC)[C@@H](O)[C@H](C)O2)[C@H](C)[C@@H](O[C@@H]2O[C@H](C)C[C@H](N(C)C)[C@H]2O)[C@](C)(O)C[C@@H](C)/C(=N\OCOCCOC)[C@H](C)[C@@H](O)[C@]1(C)O [RXM, roxithromycin, reference compound]

1: -0.52; 2: -0.70

Read off the recorded log10 MIC for Cc1c(OCCCCCCO)ccnc1CSc1nc2ccccc2[nH]1 [Example 2]
-1.00

Hello, the source for this data is patent US20090143438A1, in case you need it.
